biological target: T1, Hu HER3 (CD33-[Human HER3, residues 20-640]-TAG) (human, UniProt P21860 20-640); assay: solution equilibrium titration (SET), IgG
T1 construct: N-terminal CD33 leader is a secretion signal and is left out; also called hu HER3-Tag; HER3-Tag; not shown: C-terminal TAG (e.g. FLAG TAG)
Measurement Name: Kd (nM)

Binder	Measurement Name	Experimental Value
MOR09974 (antibody, human IgG1, kappa, V domains shown, tested as IgG) VH: QVQLVESGGGLVQPGGSLRLSCAASGFTFSSYAMSWVRQAPGKGLEWVSVINPSGNFTNYADSVKGRFTISRDNSKNTLYLQMNSLRAEDTAVYYCARWGDEGFDIWGQGTLVTVSS VL: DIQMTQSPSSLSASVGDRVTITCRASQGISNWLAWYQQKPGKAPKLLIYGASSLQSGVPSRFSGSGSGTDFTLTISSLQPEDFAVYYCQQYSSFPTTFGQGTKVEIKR	Kd	0.35
MOR10701 R55G (antibody, human IgG1, kappa, V domains shown, Variant of MOR10701; IgG1/kappa) VH: EVQLLESGGGLVQPGGSLRLSCAASGFTFSSYAMSWVRQAPGKGLEWVSVTGAVGGSTYYPDSVKGRFTISRDNSKNTLYLQMNSLRAEDTAVYYCARWGDEGFDIWGQGTLVTVSS VL: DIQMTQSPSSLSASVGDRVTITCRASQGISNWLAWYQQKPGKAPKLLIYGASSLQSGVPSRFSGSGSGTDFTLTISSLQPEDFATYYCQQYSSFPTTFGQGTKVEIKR	Kd	0.018
MOR12609 (antibody, human IgG1, kappa, V domains shown, tested as IgG) VH: QVQLVESGGGLVQPGGSLRLSCAASGFTFSSYAMSWVRQAPGKGLEWVSVINGLGYTTFYADSVKGRFTISRDNSKNTLYLQMNSLRAEDTAVYYCARWGDEGFDIWGQGTLVTVSS VL: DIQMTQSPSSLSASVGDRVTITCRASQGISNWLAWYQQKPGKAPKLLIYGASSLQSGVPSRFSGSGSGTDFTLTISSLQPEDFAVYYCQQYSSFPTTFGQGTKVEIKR	Kd	0.01
